target: human RORγt LBD (Homo sapiens); construct: expressed in transfected cells; test: RORγt reporter assay (GAL4-RORγt LBD luciferase in HEK293T cells); format: cell-based; conditions: HEK-293T, read-out: RORγt reporter Assay, % inhibition @ 6 μM, HEK293T cells, 6 μM compound
Sequence (P51449 258-518): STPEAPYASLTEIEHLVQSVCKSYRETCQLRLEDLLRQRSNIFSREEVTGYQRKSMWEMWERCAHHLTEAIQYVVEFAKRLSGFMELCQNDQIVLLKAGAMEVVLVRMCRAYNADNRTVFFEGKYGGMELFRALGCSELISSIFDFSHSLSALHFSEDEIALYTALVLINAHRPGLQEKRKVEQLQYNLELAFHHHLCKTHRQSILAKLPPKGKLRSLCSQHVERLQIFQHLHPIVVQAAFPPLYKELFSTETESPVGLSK
So basically: inhibition at 6 µM at 90% or higher? That is Condition met. Lower than 90%? That is Condition not met.

Example results:
compound: Cc1cc(C(O)(c2cc(C)c3nc(Cl)c(-c4ccccc4)c(Cl)c3c2)c2cncn2C)ccn1 (stereo not shown)
class label: Condition met
--
compound: CC(=O)N1CCCC(C(O)(c2cccnc2)c2ccc3nc(Cl)c(-c4ccccc4)c(Cl)c3c2)C1 (stereo not shown)
class label: Condition met
--
compound: Cn1cncc1C(N)(c1ccc2nc(Cl)c(-c3ccccc3)c(Cl)c2c1)c1ccccn1 (stereo not shown)
class label: Condition not met
--
compound: OC(c1ccccc1)(c1ccc2nc(C(F)(F)F)c(-c3ccccc3)c(C(F)(F)F)c2c1)C1CCNCC1 (stereo not shown)
class label: Condition not met

# evaluate next
Query: Identify whether the reported inhibition at 6 µM of the following compound is 90% or greater: CCN(CC)c1c(-c2ccccc2)c(Cl)nc2ccc(C(O)(c3cccnc3)c3cccc(Cl)c3)cc12 (stereo not shown)
Reply: Condition met
